Value source: patent US20120122843A1

- System: Notch
- Assay Protocol: Release and translocation of Notch intracellular domain into the nucleus, HEK/AENotch cells (NICD immunostaining, ImageXpress)
- Assay type: cell-based, Human
- Condition Details: 3 μM Lactacystin, 4-6 h incubation, nucleus/cytosol NICD fluorescence ratio
pIC50: −log10 of the molar value.
Measurement Label: pIC50

Example entries begin here.
Compound: COc1nc(Nc2ccc3c(n2)OC(CC(F)(F)F)CN(C)C3C)ccc1-c1cnn(C)c1 (single isomer, unassigned) [Example 34]
pIC50: < 4.60

Compound: COc1nc(Nc2ccc3c(n2)OC(CC(CF)CF)CN(C)C3)ccc1-n1cnc(C)c1 (single isomer, unassigned; (+)) [Example 67]
pIC50: 5.21

Compound: COc1nc(Nc2ccc3c(n2)O[C@H](c2ccc(F)cn2)CN(C)C3C)ccc1-n1cnc(C)c1 (single isomer, unassigned; (-))
pIC50: < 5.10

Compound: COc1nc(Nc2ccc3c(n2)OC(c2nc(C)cs2)C(C)N(C)C3)ccc1-c1cnn(C)c1 (single isomer, unassigned) [Example 30]
pIC50: < 4.60

Compound: COc1nc(Nc2ccc3c(n2)OC(C2CC2)CN(C)C3C)ccc1-c1cnn(C)c1 (single isomer, unassigned) [Example 18]
pIC50: < 5.10

Which pIC50 is listed for COc1nc(Nc2ccc3c(n2)OC(CC(CF)CF)CN(C)C3)ccc1-n1cnc(C)c1 (single isomer, unassigned; (-)) [Example 68] ?
< 4.60

Another compound: COc1nc(Nc2ccc3c(n2)OC(CCC(F)(F)F)CN(C)C3)ccc1-n1cnc(C)c1 (single isomer, unassigned; (-))
< 4.60

Next compound: COc1nc(Nc2ccc3c(n2)OC(C2CC(F)(F)C2)CN(C)C3)ccc1-c1cnn(C)c1 (single isomer, unassigned)
< 4.60

Okay, and COc1nc(Nc2cc(C)c3c(n2)OC(C2CCCO2)CN(C)C3)ccc1-c1cnn(C)c1 (single isomer, unassigned) ?
< 5.10

Now consider COc1nc(Nc2ccc3c(n2)OC(c2nc(C)cs2)C(C)N(C)C3)ccc1-n1cnc(C)c1 (single isomer, unassigned; (+)) and answer again.
< 4.60

Similarly, COc1nc(Nc2ccc3c(n2)OC(CCC(F)(F)F)CN(C)C3)ccc1-c1cnn(C)c1 (single isomer, unassigned; (+)) [Example 57] ?
< 4.94

Record: COc1nc(Nc2ccc3c(n2)OC(CC(F)(F)F)CN(C)C3C)ccc1-c1cnn(C)c1 (single isomer, unassigned) [Example 36]
< 4.60

====

- System: Aβ42
- Assay Protocol: Aβ42 release from HEK cells stably expressing APPswe (MSD electrochemiluminescence)
- Format: cell-based, Human
- Condition Details: HEK cells expressing APPswe; 4-6 h incubation with test compound; Aβ42 secreted to cell medium
Measurement Label: pIC50
Just so you know, pIC50 here is -log10 of the concentration in molar units; reply with that number alone.

Some compounds with known pIC50 results, for comparison:
Compound: COc1nc(Nc2ccc3c(n2)O[C@H](c2ccc(F)cn2)CN(C)C3C)ccc1-n1cnc(C)c1 (single isomer, unassigned; (-)) [Example 53]
Result: 7.96
//
Compound: COc1nc(Nc2ccc3c(n2)OC(C2CC2)CN(C)C3C)ccc1-c1cnn(C)c1 (single isomer, unassigned) [Example 20]
Result: 7.04
//
Compound: COc1nc(Nc2ccc3c(n2)OC(CC(F)(F)F)CN(C)C3)ccc1-c1cnn(C)c1 (single isomer, unassigned; (+)) [Example 4]
Result: 8.05

# pIC50 lookup, item COc1nc(Nc2ccc3c(n2)OC(c2nc(C)cs2)C(C)N(C)C3)ccc1-n1cnc(C)c1 (single isomer, unassigned; (+)) [Example 60]
7.77

Also COc1nc(Nc2ccc3c(n2)OC(CC(F)(F)F)CN(C)C3C)ccc1-c1cnn(C)c1 (single isomer, unassigned) [Example 35] ?
7.92

Likewise for COc1nc(Nc2cc(C)c3c(n2)OC(c2nc(C)cs2)CN(C)C3)ccc1-c1cnn(C)c1 (single isomer, unassigned) [Example 22] ?
8.00
